- runDescription: Half life in plasma of human HCT116 cells xenografted BALB/c mouse at 80 mg/kg administered as single dose by LC-MS/MS analysis
readout: T1/2 (h)
Report the figure in h without appending any unit label.

Find the recorded T1/2 belonging to Cc1cc(C)c(S(=O)(=O)N(CC(=O)O)c2ccc(Nc3ccnc(N4CCNCC4)n3)cc2)c(C)c1 and report it.
1.46

---

- runDescription: Half life in human liver microsomes at 10 uM preincubated for 5 mins followed by NADPH addition by LC-MS/MS analysis
- Type: ADME, Microsome
# half-life at 10 µM per entry
Report the figure in h without appending any unit label.

Find the recorded half-life at 10 µM belonging to Cc1cc(C)c(S(=O)(=O)N(CC(=O)O)c2ccc(Nc3ccnc(N4CCNCC4)n3)cc2)c(C)c1 and report it.
2.08

---
Find the recorded half-life at 10 µM belonging to Cc1cc(C)c(S(=O)(=O)N(CC(=O)O)c2ccc(Nc3ccnc(N4CCCC4)n3)cc2)c(C)c1 and report it.
0.507

---

- testedOn: Heat shock protein HSP90 (Homo sapiens, UniProt P07900+P08238)
- runDescription: Binding affinity to recombinant […] biotinylated-HSP90 N-terminal domain (9 to 236 residues) (unknown origin) expressed in Escherichia coli BL21 (DE3) by biolayer interferometry
readout: Kd
The reply should consist of the numeric value with the unit placed after it.

// worked examples, Kd included
Find the recorded Kd belonging to Cc1cc(C)c(S(=O)(=O)N(Cc2nnn[nH]2)c2ccc(Nc3ccnc(N4CCNCC4)n3)cc2)c(C)c1 and report it.
5.5 µM

Find the recorded Kd belonging to COC(=O)CN(c1ccc(Nc2ccnc(N3CCNCC3)n2)cc1)S(=O)(=O)c1c(C)cc(C)cc1C and report it.
1.97 µM

Find the recorded Kd belonging to COc1cc(S(=O)(=O)Nc2ccc(Nc3ccnc(N4CCCC4)n3)cc2)c(C)cc1C and report it.
21.1 µM

---
Find the recorded Kd belonging to Cc1cc(C)c(S(=O)(=O)N(CC(=O)NO)c2ccc(Nc3ccnc(N4CCNCC4)n3)cc2)c(C)c1 and report it.
2.66 µM

Find the recorded Kd belonging to Cc1cc(C)c(S(=O)(=O)N(CC(=O)O)c2ccc(Nc3ccnc(N4CCCC4)n3)cc2)c(C)c1 and report it.
7.41 µM

Find the recorded Kd belonging to Cc1cc(C)c(S(=O)(=O)N(CC(=O)O)c2ccc(Nc3ccnc(N4CCNCC4)n3)cc2)c(C)c1 and report it.
0.5 µM

---

- runDescription: Cmax in tumor of human HCT116 cells xenografted BALB/c mouse at 80 mg/kg, po administered as single dose by LC-MS/MS analysis
- Type: ADME, organism-based, Neoplasm
- Parameters: dose 80 mg/kg, route oral
readout: Cmax (µg/mL)
Report the figure in µg/mL without appending any unit label.

Find the recorded Cmax belonging to Cc1cc(C)c(S(=O)(=O)N(CC(=O)O)c2ccc(Nc3ccnc(N4CCNCC4)n3)cc2)c(C)c1 and report it.
50

---

- runDescription: Tmax in plasma of human HCT116 cells xenografted BALB/c mouse at 80 mg/kg, po administered as single dose by LC-MS/MS analysis
- Format: ADME, organism-based
readout: Tmax (min)
Report the figure in min without appending any unit label.

Find the recorded Tmax belonging to Cc1cc(C)c(S(=O)(=O)N(CC(=O)O)c2ccc(Nc3ccnc(N4CCNCC4)n3)cc2)c(C)c1 and report it.
30
